Every entry's value here was drawn from patent US8399681B2.

Target: UniProtKB P11474
Assay: TR-FRET assay (disruption of co-activator peptide binding)
Conditions: 6His-tagged ERR1 LBD, GST-hSRC2 co-activator polypeptide; average of 3 independent experiments
Experimental: Time-Resolved Fluorescence Resonance Energy Transfer (TR-FRET) experiments were performed to examine the functional response of ERR1 (also known as ERR-α or ERR-1) ligands. The TR-FRET assay described herein relied on the conformation of ERR1 for binding to a co-activator peptide: when a test compound binds to ERR1 and alters its conformation, it can disrupt the binding of the co-activator peptide. […]
Reported metric: EC50
Answer format reminder: number followed by unit.

Solved cases (2 shown):
{"Compound": "CNC1CCCCN(C2=NC(=O)/C(=C/c3ccc4c(cnn4Cc4ccc(Cl)cc4C(F)(F)F)c3)S2)C1 (stereo not shown) [Example 161]", "Experimental result": "24.8 nM"}
{"Compound": "COC[C@@H]1CN(C2=NC(=O)/C(=C/c3ccc4c(cnn4Cc4ccc(Cl)cc4C(F)(F)F)c3)S2)CCO1 [Example 235]", "Experimental result": "5 nM"}

Briefly, EC50 measured for C[C@@H]1CN(C2=NC(=O)/C(=C/c3ccc4c(cnn4Cc4ccc(C(C)(C)O)cc4C(F)(F)F)c3)S2)C[C@H](C)N1 [Example 243] : 38 nM

The reported value for COC[C@@H]1CN(C2=NC(=O)/C(=C/c3ccc4c(cnn4Cc4ccc(C(F)(F)F)cc4C(F)(F)F)c3)S2)CCO1 [Example 234] in terms of EC50 is 16 nM

EC50 for CN1CCN(C2=NC(=O)/C(=C/c3ccc4c(cnn4Cc4ccc(Cl)cc4C(F)(F)F)c3)S2)C[C@@H]1CO [Example 196] is 16 nM

// EC50 lookup, compound = COC[C@@H]1CN(C2=NC(=O)/C(=C/c3ccc4c(cnn4Cc4ccc(Cl)cc4C(F)(F)F)c3)S2)CCN1 [Example 209] , result: 6 nM

Lookup result for C=C(C)c1ccc(Cn2ncc3cc(/C=C4\SC(N5CCN[C@@H](CO)C5)=NC4=O)ccc32)c(C(F)(F)F)c1 [Example 247] ; measured EC50: 41 nM

###

molecular target: ERR1 (also known as ERR-α or ERR-1) (Homo sapiens, UniProt P11474); assay: TR-FRET assay (disruption of co-activator peptide binding); conditions: 6His-tagged ERR1 LBD, GST-hSRC2 co-activator polypeptide; average of 3 independent experiments
EC50 under 20 nM gets y, anything at or over 20 nM gets n.

Reference set (5 entries):
{"Molecule": "CN1C[C@@H]2C[C@H]1CN2C1=NC(=O)/C(=C/c2ccc3c(cnn3Cc3ccc(Cl)cc3C(F)(F)F)c2)S1", "Tested target": "ERR1 (also known as ERR-α or ERR-1) (Homo sapiens, UniProt P11474)", "Label": "y"}
{"Molecule": "O=C1N=C(N2CCN(CCO)CC2)S/C1=C\\c1ccc2c(cnn2Cc2ccc(C(F)(F)F)cc2C(F)(F)F)c1", "Tested target": "ERR1 (also known as ERR-α or ERR-1) (Homo sapiens, UniProt P11474)", "Label": "y"}
{"Molecule": "O=C1N=C(N2CCNCC2)S/C1=C\\c1ccc2c(cnn2Cc2ccc(C(F)(F)F)cc2C(F)(F)F)c1", "Tested target": "ERR1 (also known as ERR-α or ERR-1) (Homo sapiens, UniProt P11474)", "Label": "n"}
{"Molecule": "CC(N[C@H]1CCN(C2=NC(=O)/C(=C/c3ccc4c(cnn4Cc4ccc(C(F)(F)F)cc4C(F)(F)F)c3)S2)C1)C(N)=O (stereo partly drawn)", "Tested target": "ERR1 (also known as ERR-α or ERR-1) (Homo sapiens, UniProt P11474)", "Label": "n"}
{"Molecule": "O=C(O)CN1CCN(C2=NC(=O)/C(=C/c3ccc4c(cnn4Cc4ccc(Cl)cc4C(F)(F)F)c3)S2)CC1", "Tested target": "ERR1 (also known as ERR-α or ERR-1) (Homo sapiens, UniProt P11474)", "Label": "y"}

Input NC(=O)C1CN(C2=NC(=O)/C(=C/c3ccc4c(cnn4Cc4ccc(Cl)cc4C(F)(F)F)c3)S2)CCN1 (stereo not drawn) ; condition: EC50 strictly below 20 nM. Does it hold?
y

Say whether its EC50 is strictly beneath 20 nM. Entry: COC[C@@H]1CN(C2=NC(=O)/C(=C/c3ccc4c(cnn4Cc4ccc(O)cc4C(F)(F)F)c3)S2)CCO1
y

Hi there! Is EC50 for COc1ccc(Cn2ncc3cc(/C=C4\SC(N5C[C@@H](O)[C@H](O)C5)=NC4=O)ccc32)c(C(F)(F)F)c1 below 20 nM, do you know?
y

Dear reviewer, please state whether COC(=O)N1CCN(C2=NC(=O)/C(=C/c3ccc4c(cnn4Cc4ccc(C(F)(F)F)cc4C(F)(F)F)c3)S2)C[C@@H]1CO has EC50 strictly beneath 20 nM.
y

Does the reported EC50 of the following molecule sit strictly below 20 nM? O=C1N=C(N2CCC(C(=O)O)CC2)S/C1=C\c1ccc2c(cnn2Cc2ccc(C(F)(F)F)cc2C(F)(F)F)c1
y

Decide: EC50 of CN1CCN(C2=NC(=O)/C(=C/c3ccc4c(cnn4Cc4ccc(C(F)(F)F)cc4C(F)(F)F)c3)S2)CC1CCO (stereo not drawn) strictly below 20 nM?
y

Here's an entry: CS(=O)(=O)c1ccc(Cn2ncc3cc(/C=C4\SC(N5CCN(CCO)CC5)=NC4=O)ccc32)c(Cl)c1 . Is its EC50 below 20 nM?
n

Lab log: compare recorded EC50 with 20 nM; is it strictly lower for CN1CCN(C2=NC(=O)/C(=C/c3ccc4c(cnn4Cc4ccc(C(F)(F)F)cc4C4CC4)c3)S2)CC1 ?
n

Field: below-cutoff. Rule: recorded EC50 strictly less than 20 nM. Subject: O=C1N=C(N2CC(N3CCOCC3)C2)S/C1=C\c1ccc2c(cnn2Cc2ccc(C(F)(F)F)cc2C(F)(F)F)c1
n

Please let me know if COc1ccc(Cn2ncc3cc(/C=C4\SC(N5CCC(C(=O)O)CC5)=NC4=O)ccc32)c(C(F)(F)F)c1 shows EC50 below 20 nM.
y

Please determine if O=C1N=C(N2CCCNCC2)S/C1=C\c1ccc2c(cnn2Cc2ccc(C(F)(F)F)cc2C(F)(F)F)c1 is below 20 nM in terms of EC50.
n

###

Target: ERR1 (also known as ERR-α or ERR-1) (Homo sapiens, UniProt P11474)
Sequence (P11474 193-421 limits assumed): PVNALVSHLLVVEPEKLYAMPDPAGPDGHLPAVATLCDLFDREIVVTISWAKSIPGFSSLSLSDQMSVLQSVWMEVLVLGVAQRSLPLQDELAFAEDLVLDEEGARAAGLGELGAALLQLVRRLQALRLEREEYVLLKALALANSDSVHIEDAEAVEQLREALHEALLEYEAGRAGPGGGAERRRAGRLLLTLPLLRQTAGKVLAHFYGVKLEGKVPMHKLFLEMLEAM
Experiment: TR-FRET assay (disruption of co-activator peptide binding)
Conditions: 6His-tagged ERR1 LBD, GST-hSRC2 co-activator polypeptide; average of 3 independent experiments
Reported metric: EC50
For clarity, give the value followed by its unit.

Guide cases for EC50, answers given:
{"Compound string": "O=C1N=C(N2CCC(C(=O)O)CC2)S/C1=C\\c1ccc2c(c1)c(I)nn2Cc1ccc(C(F)(F)F)cc1C(F)(F)F", "EC50": "3.6 nM"}
{"Compound string": "COC[C@H]1CN(C2=NC(=O)/C(=C/c3ccc4c(cnn4Cc4ccc(Cl)cc4C(F)(F)F)c3)S2)CCN1", "EC50": "6 nM"}

Reported EC50 of CC(=O)N1CCN(C2=NC(=O)/C(=C/c3ccc4c(cnn4Cc4ccc(F)cc4C(F)(F)F)c3)S2)CC1 : 42 nM

Please fill in: EC50 reported for N[C@@H]1C[C@H](CO)N(C2=NC(=O)/C(=C/c3ccc4c(cnn4Cc4ccc(Cl)cc4C(F)(F)F)c3)S2)C1 = 96 nM

###

Target: ERR1 (also known as ERR-α or ERR-1) (Homo sapiens, UniProt P11474)
Assay: TR-FRET assay (disruption of co-activator peptide binding)
Details: 6His-tagged ERR1 LBD, GST-hSRC2 co-activator polypeptide; average of 3 independent experiments
Procedure: Time-Resolved Fluorescence Resonance Energy Transfer (TR-FRET) experiments were performed to examine the functional response of ERR1 (also known as ERR-α or ERR-1) ligands. The TR-FRET assay described herein relied on the conformation of ERR1 for binding to a co-activator peptide: when a test compound binds to ERR1 and alters its conformation, it can disrupt the binding of the co-activator peptide. […]
Listed below: pEC50 values for each entry.
Just so you know, pEC50 here is -log10 of the concentration in molar units; reply with that number alone.

{"Molecule": "O=C1N=C(N2CCC[C@@H](C(=O)O)C2)S/C1=C\\c1ccc2c(cnn2Cc2ccc(C(F)(F)F)cc2C(F)(F)F)c1", "pEC50": 8.05}
{"Molecule": "O=C1N=C(N2C[C@@H]3C[C@H]2CN3)S/C1=C\\c1ccc2c(cnn2Cc2ccc(C(F)(F)F)cc2C(F)(F)F)c1", "pEC50": 7.59}
{"Molecule": "CCC1(O)CCCN(C2=NC(=O)/C(=C/c3ccc4c(cnn4Cc4ccc(Cl)cc4C(F)(F)F)c3)S2)C1 (centres unmarked)", "pEC50": 7.74}

Value (pEC50, ERR1 (also known as ERR-α or ERR-1) (Homo sapiens, UniProt P11474)) for record CN1CCN(C2=NC(=O)/C(=C/c3ccc4c(cnn4Cc4ccc(Cl)cc4Cl)c3)S2)CC1 = 7.17

Entry CCN1CCN(C2=NC(=O)/C(=C/c3ccc4c(cnn4Cc4ccc(C(F)(F)F)cc4C(F)(F)F)c3)S2)CC1 ; assay system ERR1 (also known as ERR-α or ERR-1) (Homo sapiens, UniProt P11474); pEC50 recorded at 7.68

Summary: O=C1N=C(N2CC(N3CCOCC3)C2)S/C1=C\c1ccc2c(cnn2Cc2ccc(Cl)cc2C(F)(F)F)c1 , ERR1 (also known as ERR-α or ERR-1) (Homo sapiens, UniProt P11474), pEC50 = 7.52

Tested on ERR1 (also known as ERR-α or ERR-1) (Homo sapiens, UniProt P11474): N[C@@H]1C[C@H](CO)N(C2=NC(=O)/C(=C/c3ccc4c(cnn4Cc4ccc(C(F)(F)F)cc4C(F)(F)F)c3)S2)C1 . Observed pEC50: 7.52

Reported ERR1 (also known as ERR-α or ERR-1) (Homo sapiens, UniProt P11474) pEC50 for item CN1C[C@H]2CC[C@@H](C1)N2C1=NC(=O)/C(=C/c2ccc3c(cnn3Cc3ccc(C(F)(F)F)cc3C(F)(F)F)c2)S1 was 7.70

Item: O=C1CN(C2=NC(=O)/C(=C/c3ccc4c(cnn4Cc4ccc(Cl)cc4C(F)(F)F)c3)S2)CCN1 | System: ERR1 (also known as ERR-α or ERR-1) (Homo sapiens, UniProt P11474) | pEC50: 8.34

I looked up N#Cc1nn(Cc2ccc(C(F)(F)F)cc2C(F)(F)F)c2ccc(/C=C3\SC(N4CCN[C@@H](CO)C4)=NC3=O)cc12 and its pEC50 for ERR1 (also known as ERR-α or ERR-1) (Homo sapiens, UniProt P11474) was 7.57

The molecule NC1(C(=O)O)CCN(C2=NC(=O)/C(=C/c3ccc4c(cnn4Cc4ccc(Cl)cc4C(F)(F)F)c3)S2)CC1 , when measured on ERR1 (also known as ERR-α or ERR-1) (Homo sapiens, UniProt P11474), yielded pEC50 of 7.58

Field pEC50 (ERR1 (also known as ERR-α or ERR-1) (Homo sapiens, UniProt P11474)), entry CN(C)CC1CN(C2=NC(=O)/C(=C/c3ccc4c(cnn4Cc4ccc(C(F)(F)F)cc4C(F)(F)F)c3)S2)CCO1 (centres unmarked) : 7.42

The observed pEC50 for O=C1N=C(N2C[C@@H]3C[C@H]2CN3CCO)S/C1=C\c1ccc2c(cnn2Cc2ccc(C(F)(F)F)cc2C(F)(F)F)c1 when tested with ERR1 (also known as ERR-α or ERR-1) (Homo sapiens, UniProt P11474) stands at 7.79
